Values were extracted from patent US7622491B2.

- TESTED ON: mouse PPAR δ (Mus musculus, UniProt P35396)
- Sequence (P35396 210-438 limits assumed): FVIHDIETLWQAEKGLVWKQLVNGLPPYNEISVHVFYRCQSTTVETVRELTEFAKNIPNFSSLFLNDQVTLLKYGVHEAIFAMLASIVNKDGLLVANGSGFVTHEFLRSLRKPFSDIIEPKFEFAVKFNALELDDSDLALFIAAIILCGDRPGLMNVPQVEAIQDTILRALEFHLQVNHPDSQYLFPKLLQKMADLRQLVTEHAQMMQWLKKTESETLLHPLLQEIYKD
- ASSAY OVERVIEW: PPAR δ transactivation (GAL4 chimeric receptor luciferase reporter) assay
- EXPERIMENTAL PARAMETERS: GAL4-mPPAR δ chimeric receptor, pFR-Luc reporter, HEK293T cells, 20 hours incubation
MEASURED PROPERTY: EC50

[
  {
    "SUBSTANCE SMILES": "CCCc1cc(CC(=O)O)ccc1OCCOc1ccc(Cl)cc1-n1nc2ccccc2n1",
    "EC50": "≤ 10 µM"
  },
  {
    "SUBSTANCE SMILES": "O=C(O)Cc1ccc(OCCOc2ccc(Cl)cc2-n2nc3ccccc3n2)cc1",
    "EC50": "≤ 10 µM"
  }
]

Asked: For the compound shown here, "O=C(O)Cn1ncc2cc(OCCCOc3ccc(Cl)cc3-n3nc4ccccc4n3)ccc21" , give the reported EC50.
Given back: ≤ 10 µM

Asked: Can you check "O=C(O)Cn1ccc2cc(OCCOc3ccc(Cl)cc3-n3nc4ccccc4n3)ccc21" next?
Given back: ≤ 10 µM
